Target: T1, human MSLN-R2-his protein (human, UniProt Q13421 391-486)
T1 construct: Self-made in HEK293E cells; also called human MSLN-R2 protein; hMSLN-R2-his; not shown: His tag
T1 sequence (Q13421 other isoform, or with tags, fused parts or gaps): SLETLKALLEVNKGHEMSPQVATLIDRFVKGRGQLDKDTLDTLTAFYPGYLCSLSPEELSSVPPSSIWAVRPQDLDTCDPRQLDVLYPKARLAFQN
Assay: ELISA on coated antigen, antibody 10 nM
Listed next: entries and their corresponding OD450.

binder: S009-F2.13.3 (antibody, human IgG1, kappa, V domains shown, Human-murine chimeric antibody: murine VH/VL on human IgG1 heavy and kappa light constant regions) VH: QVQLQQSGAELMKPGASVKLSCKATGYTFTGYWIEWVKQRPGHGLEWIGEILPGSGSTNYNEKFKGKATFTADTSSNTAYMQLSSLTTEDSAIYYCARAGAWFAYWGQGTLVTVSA VL: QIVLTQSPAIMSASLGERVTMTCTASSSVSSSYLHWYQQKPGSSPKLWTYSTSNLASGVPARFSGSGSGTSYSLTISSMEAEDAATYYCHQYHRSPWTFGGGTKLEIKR
unit.of.measure: OD450
OD450: 0.06

binder: S009-F2.23.12 (antibody, human IgG1, kappa, V domains shown, Human-murine chimeric antibody: murine VH/VL on human IgG1 heavy and kappa light constant regions) VH: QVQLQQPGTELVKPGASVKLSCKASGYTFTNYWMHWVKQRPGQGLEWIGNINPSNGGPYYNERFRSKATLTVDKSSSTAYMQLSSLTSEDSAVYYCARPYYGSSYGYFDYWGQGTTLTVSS VL: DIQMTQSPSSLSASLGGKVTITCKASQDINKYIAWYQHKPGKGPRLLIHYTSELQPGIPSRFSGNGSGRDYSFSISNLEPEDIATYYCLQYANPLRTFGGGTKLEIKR
unit.of.measure: OD450
OD450: 0.05

binder: S009-F2.58.8 (antibody, human IgG1, kappa, V domains shown, Human-murine chimeric antibody: murine VH/VL on human IgG1 heavy and kappa light constant regions) VH: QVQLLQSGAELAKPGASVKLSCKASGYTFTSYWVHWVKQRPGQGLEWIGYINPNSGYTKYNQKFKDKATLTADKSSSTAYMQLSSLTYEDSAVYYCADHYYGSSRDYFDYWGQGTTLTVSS VL: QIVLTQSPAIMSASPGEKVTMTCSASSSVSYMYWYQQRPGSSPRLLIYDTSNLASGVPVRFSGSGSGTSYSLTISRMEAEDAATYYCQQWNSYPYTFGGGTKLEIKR
unit.of.measure: OD450
OD450: 2.43

This collection of values is drawn from patent US20250250357A1.
